TEST SYSTEM: human glucagon receptor (human) (UniProt P47871)
Sequence (P47871 26-477): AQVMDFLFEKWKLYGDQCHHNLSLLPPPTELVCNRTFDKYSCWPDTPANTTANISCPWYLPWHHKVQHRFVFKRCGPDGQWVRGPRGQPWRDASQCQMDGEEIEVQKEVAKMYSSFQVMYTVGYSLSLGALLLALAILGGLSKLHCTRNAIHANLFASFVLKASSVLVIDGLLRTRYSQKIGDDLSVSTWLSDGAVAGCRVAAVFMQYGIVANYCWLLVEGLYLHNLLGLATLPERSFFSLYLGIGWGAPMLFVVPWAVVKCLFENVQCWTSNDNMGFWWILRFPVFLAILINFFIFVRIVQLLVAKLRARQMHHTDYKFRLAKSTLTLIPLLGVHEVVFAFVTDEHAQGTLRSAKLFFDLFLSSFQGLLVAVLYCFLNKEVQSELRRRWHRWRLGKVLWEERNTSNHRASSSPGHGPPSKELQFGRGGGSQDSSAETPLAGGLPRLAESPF
EXPERIMENT NOTES: cell-based or functional assay
Starred links: 1 amine or outer side, 2 acyl side, 3 side chain; linkers in the order of their positions; H or OH if unused. Non-standard residues stand in square brackets, D forms with d. Groups on a side chain read outwards from the residue. No end group written: not given here. *: point of attachment. C20 diacid = O=C(O)CCCCCCCCCCCCCCCCCCC(=O)*; αMePhe(2-F) = C[C@](N)(Cc1ccccc1F)C(=O)O; γGlu = O=C(O)[C@H](CCC(=O)[*:2])N[*:1]; αMeL = CC(C)C[C@](C)(N)C(=O)O; AEEA = NCCOCCOCC(=O)O; Aib = CC(C)(N)C(=O)O
Label scheme for cAMP Rel EC50 (1% HSA): lower than 2000 nM is Condition not met, 2000 nM and above is Condition met.

Hello, I need to know if YXQGTFTSDXSQXLDXKAQXAFIEYLLAGGPSSGAPPPSGSEE (non-natural residues; lipidated Lys; C-terminal amide; synthetic construct; SITE 2: note = 2-Aminoisobutyric Acid; SITE 10: note = 3-(4-Pyridyl)-L-alanine; SITE 13: note = alpha-methyl-leucine; SITE 16: note = L-ornithine; SITE 17: note = Lysine is chemically modified through conjugation of the epsilon-amino group of the Lysine side chain with (gamma-Gl)) [Example 1056] has measured cAMP Rel EC50 (1% HSA) not below 2000 nM. Thanks!
Condition not met

Hello, I need to know if Y[Aib]QGTFTSDYSI[αMeL]LDKQAAK([AEEA-AEEA-γGlu-C20 diacid])QFVEWLIA[Aib]GPSSGEPPPSEG-NH2 [Example 326] has measured cAMP Rel EC50 (1% HSA) not below 2000 nM. Thanks!
Condition not met

Hello, I need to know if YXQGTFTSDXSQXLDXKAQXAFIEXLIEGGPSSGAPPPSGSEEE (acylated Lys e-γGlu-C18 diacid; non-natural residues; C-terminal amide; synthetic construct; SITE 2: note = 2-Aminoisobutyric Acid; SITE 10: note = 3-(4-Pyridyl)-L-alanine; SITE 13: note = alpha-methyl-leucine; SITE 16: note = L-ornithine; SITE 17: note = Lysine is chemically modified through conjugation of the epsilon-amino group of the Lysine side chain with D-Glutami) [Example 1071] has measured cAMP Rel EC50 (1% HSA) not below 2000 nM. Thanks!
Condition met

Hello, I need to know if Y[Aib]QGT[αMePhe(2-F)]TSDYSKILDKIAQK([AEEA-γGlu-C20 diacid])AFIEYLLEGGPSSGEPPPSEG-NH2 [Example 311] has measured cAMP Rel EC50 (1% HSA) not below 2000 nM. Thanks!
Condition met

Hello, I need to know if YXQGTFTSDXSQXLDXKAQXAFIQXLLEGGPSSGAPPPSGSEEE (Aib, 4Pal, Orn, Me4Pal, αMeY; acylated lysine; amide; synthetic construct; SITE 2: note = 2-Aminoisobutyric Acid; SITE 10: note = 3-(4-Pyridyl)-L-alanine; SITE 13: note = alpha-methyl-leucine; SITE 16: note = L-ornithine; SITE 17: note = Lysine is chemically modified through conjugation of the epsilon-amino group of the Lysine side chain with D-Glutami) [Example 1083] has measured cAMP Rel EC50 (1% HSA) not below 2000 nM. Thanks!
Condition not met

Ref: patent US20240270821A1
